Data credit: PubChem BioAssay AID2202554

Tested on: S. typhimurium/E. coli reverse mutation, colony counts
MEASUREMENT_NOTES: Bacterial reverse mutation test (aka Ames test) summary data
Inconclusive results are not listed. The source made the active and inactive calls. No rule for the calls is given here.
RESULT_TYPE: outcome

For orientation, consider the following solved cases.
[
  {
    "COMPOUND": "COP(=O)(O)OC",
    "RESULT_TYPE": "outcome",
    "ASSAY_VALUE": "inactive; negative"
  },
  {
    "COMPOUND": "COc1cc(CNC(=O)CCCC/C=C/C(C)C)ccc1O",
    "RESULT_TYPE": "outcome",
    "ASSAY_VALUE": "inactive; negative"
  },
  {
    "COMPOUND": "CCOc1ccc(NC(C)=O)cc1",
    "RESULT_TYPE": "outcome",
    "ASSAY_VALUE": "inactive; negative"
  },
  {
    "COMPOUND": "CC=CC=CC=O",
    "RESULT_TYPE": "outcome",
    "ASSAY_VALUE": "active; positive"
  }
]

For record `CC1=CC(C)(C)Nc2ccccc21` the listed outcome is inactive; negative

Kindly note the recorded outcome for `c1ccc2c(c1)CCNC2` , which is inactive; negative

The reported outcome of the compound `CCC(CO)(CO)[N+](=O)[O-]` was inactive; negative

`O=C(O)C(Cl)(Cl)Cl` yielded outcome of inactive; negative

Kindly note the recorded outcome for `O=C1c2c(O)ccc(O)c2C(=O)c2c(NCCO)ccc(NCCO)c21` , which is active; positive

`NNC(N)=O` has a reported outcome of inactive; negative

For `CC/C=C\C/C=C\C/C=C\CCCCCCCC(=O)OCC` the compound record lists outcome as active; weakly positive

// outcome lookup, compound = `OCC(Cl)Cl` , result: active; weakly positive

Memo: `O=C1CCO1` , reported outcome: active; positive

###

Test system: S. typhimurium/E. coli reverse mutation, colony counts
MEASUREMENT_NOTES: Bacterial reverse mutation test (aka Ames test) summary data;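 also: His-minus Salmonella and trp-minus E. coli WP2 uvrA pKM101 with or without liver S9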
Records with an inconclusive call do not appear. Calls of active or inactive are those of the source. The rule behind the calls is not given here.
RESULT_TYPE: outcome

Guide cases for outcome, answers given:
[
  {
    "COMPOUND": "CCCCCCCC/C=C\\CCCCCCCC(=O)O",
    "TESTED_SYSTEM": "S. typhimurium/E. coli reverse mutation, colony counts",
    "outcome": "inactive; negative"
  },
  {
    "COMPOUND": "O=C(NCO)NCO",
    "TESTED_SYSTEM": "S. typhimurium/E. coli reverse mutation, colony counts",
    "outcome": "active; positive"
  },
  {
    "COMPOUND": "Nc1nc2cc(Cl)c(Cl)cc2s1",
    "TESTED_SYSTEM": "S. typhimurium/E. coli reverse mutation, colony counts",
    "outcome": "inactive; negative"
  },
  {
    "COMPOUND": "Cc1ccc(S(N)(=O)=O)cc1",
    "TESTED_SYSTEM": "S. typhimurium/E. coli reverse mutation, colony counts",
    "outcome": "inactive; negative"
  },
  {
    "COMPOUND": "O[C@@H]([C@H](O)[C@H](O)CBr)[C@H](O)CBr",
    "TESTED_SYSTEM": "S. typhimurium/E. coli reverse mutation, colony counts",
    "outcome": "active; positive"
  },
  {
    "COMPOUND": "CCCCCCCCCCCC(=O)O",
    "TESTED_SYSTEM": "S. typhimurium/E. coli reverse mutation, colony counts",
    "outcome": "inactive; negative"
  },
  {
    "COMPOUND": "CN(C)c1ccc(N=Nc2ccccc2)cc1",
    "TESTED_SYSTEM": "S. typhimurium/E. coli reverse mutation, colony counts",
    "outcome": "active; positive"
  },
  {
    "COMPOUND": "NS(=O)(=O)c1cc2c(cc1Cl)NCNS2(=O)=O",
    "TESTED_SYSTEM": "S. typhimurium/E. coli reverse mutation, colony counts",
    "outcome": "inactive; negative"
  }
]

Lookup result for `Cc1cc([N+](=O)[O-])ccc1N` ; measured outcome: active; positive

// field: outcome; key: `Brc1ccc(Oc2cc(Br)c(Br)cc2Br)c(Br)c1` ; value = inactive; negative

Record CN(C)CCOC(C)(c1ccccc1)c1ccccn1 (stereo not drawn) . Reported outcome: inactive; negative

Looking up `CCC(C)=NO` , I found its outcome recorded as active; positive

Reported outcome for `Oc1cccc(Cl)c1` was inactive; negative

Query CC(C)(COCC1CO1)COCC1CO1 (stereo not drawn) yields outcome of active; positive

Consider `Oc1cccc(Nc2ccccc2)c1` . Its measured outcome is inactive; negative

Per the record, `Nc1cc(S(=O)(=O)O)ccc1O` has outcome of inactive; negative

###

Test system: S. typhimurium/E. coli reverse mutation, colony counts
MEASUREMENT_NOTES: Bacterial reverse mutation test (aka Ames test) summary data;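 also: His-minus Salmonella and trp-minus E. coli WP2 uvrA pKM101 with or without liver S9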
Records with an inconclusive call do not appear. Calls of active or inactive are those of the source. How the calls were made is not given here.
Form entry, call: pick from active, inactive

Please review the entries below; each comes with its answer.
[
  {
    "MOLECULE": "O=C(O)CS",
    "CATEGORY_LABEL": "inactive"
  },
  {
    "MOLECULE": "O=Cc1ccccc1",
    "CATEGORY_LABEL": "inactive"
  },
  {
    "MOLECULE": "C=C(C)C(=O)OCC",
    "CATEGORY_LABEL": "inactive"
  },
  {
    "MOLECULE": "C=CC(=C)CCC=C(C)C",
    "CATEGORY_LABEL": "inactive"
  },
  {
    "MOLECULE": "O=NN1CCOCC1",
    "CATEGORY_LABEL": "active"
  }
]

Ask: So what was the verdict on `CCN1CCOCC1` in this test?
Reply: active

###

System: S. typhimurium/E. coli reverse mutation, colony counts
MEASUREMENT_NOTES: Bacterial reverse mutation test (aka Ames test) summary data;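 also: His-minus Salmonella and trp-minus E. coli WP2 uvrA pKM101 with or without liver S9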
Records with an inconclusive call do not appear. The source made the active and inactive calls. How the calls were made is not given here.
Could you please pick one outcome from this set? True for active, False for inactive

Reference set (7 entries):
[
  {
    "STRUCTURE_STRING": "CC(C)CN",
    "CATEGORY_LABEL": "False"
  },
  {
    "STRUCTURE_STRING": "Cc1ccc(N)cc1[N+](=O)[O-]",
    "CATEGORY_LABEL": "True"
  },
  {
    "STRUCTURE_STRING": "NC(=O)c1cccnc1",
    "CATEGORY_LABEL": "False"
  },
  {
    "STRUCTURE_STRING": "O=C(Nc1ccccc1SSc1ccccc1NC(=O)c1ccccc1)c1ccccc1",
    "CATEGORY_LABEL": "False"
  },
  {
    "STRUCTURE_STRING": "CN[C@@H]1[C@H](O[C@H]2[C@H](O[C@H]3[C@H](O)[C@@H](O)[C@H](NC(=N)N)[C@@H](O)[C@@H]3N=C(N)N)O[C@@H](C)[C@]2(O)C=O)O[C@@H](CO)[C@H](O)[C@H]1O",
    "CATEGORY_LABEL": "True"
  },
  {
    "STRUCTURE_STRING": "CCn1cc(C(=O)O)c(=O)c2ccc(C)nc21",
    "CATEGORY_LABEL": "True"
  },
  {
    "STRUCTURE_STRING": "Cc1cccc(C)c1N",
    "CATEGORY_LABEL": "True"
  }
]

# ---- query compound ----
Ask: Outcome? `NNC(N)=S`
Reply: False

###

System: S. typhimurium/E. coli reverse mutation, colony counts
MEASUREMENT_NOTES: Bacterial reverse mutation test (aka Ames test) summary data;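 also: His-minus Salmonella and trp-minus E. coli WP2 uvrA pKM101 with or without liver S9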
Records with an inconclusive call do not appear. Calls of active or inactive are those of the source. The rule behind the calls is not given here. Residues, ends and D or L forms follow the SMILES beside them.
Entry note: the call must match one of active, inactive

Reference set (4 entries):
[
  {
    "COMPOUND": "Cc1ccc2ccccc2c1",
    "TESTED_SYSTEM": "S. typhimurium/E. coli reverse mutation, colony counts",
    "CATEGORY_LABEL": "inactive"
  },
  {
    "COMPOUND": "O=C1NC2NC(=O)NC2N1 (stereo not drawn)",
    "TESTED_SYSTEM": "S. typhimurium/E. coli reverse mutation, colony counts",
    "CATEGORY_LABEL": "inactive"
  },
  {
    "COMPOUND": "[Co]",
    "TESTED_SYSTEM": "S. typhimurium/E. coli reverse mutation, colony counts",
    "CATEGORY_LABEL": "active"
  },
  {
    "COMPOUND": "CCOCCO",
    "TESTED_SYSTEM": "S. typhimurium/E. coli reverse mutation, colony counts",
    "CATEGORY_LABEL": "inactive"
  }
]

Ask: In this assay, the call recorded for `OCCO` was what?
Reply: inactive

Ask: Hi team, can someone confirm the assay call for `CCCCCCCCCCCC(C)=O` ?
Reply: inactive

Ask: What outcome does the record of this test show for `CCCC(=O)O` ?
Reply: inactive

Ask: For `O=C(OC1CCCCC1)c1ccccc1C(=O)OC1CCCCC1` , what call appears in the results of this test?
Reply: inactive

Ask: // param item: COC(=O)[C@H](Cc1ccccc1)NC(=O)[C@@H](N)CC(=O)O (H-Asp-Phe-OMe) ; yields the recorded call
Reply: inactive

Ask: How did this test come out for `O=S(=O)(O)c1cc(N=Nc2c(O)ccc3ccccc23)ccc1-c1ccc(N=Nc2c(O)ccc3ccccc23)cc1S(=O)(=O)O` ?
Reply: inactive
